- TEST_SUMMARY: collision cross section (TIMS, N2 drift gas) of the primary ion; higher = larger gas-phase ion size
- CONDITIONS: ionization mode: ESI-; ion species: [M-H]-
MEASUREMENT_TYPE: collision cross section (Å²)

collision cross section in this record for CCc1cccc(C)c1N(C(=O)CS(=O)(=O)O)C(C)COC (configuration not stated) : 173.48

collision cross section in this record for CC1(C)[C@@H](O)CC[C@]2(C)[C@H]3C(=O)C=C4[C@@H]5C[C@@](C)(C(=O)O)CC[C@]5(C)CC[C@@]4(C)[C@]3(C)CC[C@@H]12 : 224.72

collision cross section in this record for O=C(c1ccc(O)cc1O)c1ccc(O)cc1O [2,2',4,4'-Tetrahydroxybenzophenone] : 151.01

collision cross section in this record for Cc1cccc(Nc2ccncc2S(=O)(=O)NC(=O)NC(C)C)c1 [Torasemide] : 184.59

collision cross section in this record for BrC1CCC(Br)C(Br)CCC(Br)C(Br)CCC1Br (configuration not stated) [Hexabromocyclododecane (two peaks)] : 178.05

collision cross section in this record for C[C@H]1[C@H](C)CC[C@]2(C(=O)O)CC[C@]3(C)C(=CC[C@@H]4[C@@]5(C)CC[C@H](O)C(C)(C)[C@@H]5CC[C@]43C)[C@H]12 : 219.38

collision cross section in this record for COc1ccc2c(c1)c(CC(=O)O)c(C)n2C(=O)c1ccc(Cl)cc1 : 188.5

collision cross section in this record for O=S(=O)(O)CCC(F)(F)C(F)(F)C(F)(F)C(F)(F)C(F)(F)C(F)(F)F : 168.03

collision cross section in this record for CO/C=C(/C(=O)O)c1ccccc1Oc1cc(Oc2ccccc2C#N)ncn1 : 188.36

collision cross section in this record for CC(C)COC(=O)c1ccccc1C(=O)O [Mono-iso-butyl-phthalate] : 151.15

collision cross section in this record for NS(=O)(=O)c1cc2c(cc1Cl)NCNS2(=O)=O [Hydrochlorothiazide] : 152.66

collision cross section in this record for CC(C)C1C2CCC1c1c(NC(=O)c3cn(C)nc3C(F)F)cccc12 (configuration not stated) : 191.1

collision cross section in this record for Oc1cc(Cl)ccc1Oc1ccc(Cl)cc1Cl : 158.5

collision cross section in this record for Cn1c(N)nc2ncc(-c3ccccc3)cc21 [2-Amino-1-methyl-6-phenylimidazo[4,5-b]pyridine (PhIP)] : 152.05

collision cross section in this record for CC(C)(C)Nc1nc(N)nc(O)n1 [2-Hydroxydesethylterbuthylazine] : 140.22

collision cross section in this record for COc1cc(C[C@H]2COC(=O)[C@@H]2Cc2ccc(O)c(OC)c2)ccc1O : 176.96

collision cross section in this record for CCOc1nc2cccc(C(=O)O)c2n1Cc1ccc(-c2ccccc2-c2nnn[nH]2)cc1 : 202.36

collision cross section in this record for Cc1cccc(C)c1N(Cn1cccn1)C(=O)CS(=O)(=O)O : 168.78

collision cross section in this record for CC(C)c1cc(C(C)(C)c2ccc(O)c(C(C)C)c2)ccc1O : 187.67

collision cross section in this record for CCc1cc(Cc2cc(CC)cc(C(C)(C)C)c2O)c(O)c(C(C)(C)C)c1 : 204.77

collision cross section in this record for CCOC(=O)C1=C(C)NC(C)=C(C(=O)OC)C1c1cccc([N+](=O)[O-])c1 (configuration not stated) : 183.62

collision cross section in this record for C[C@]12C=CC(=O)C=C1CC[C@@H]1[C@@H]2C(=O)C[C@@]2(C)[C@H]1CC[C@]2(O)C(=O)CO : 184
